B1: library; numbered along this chain (parent)
chain: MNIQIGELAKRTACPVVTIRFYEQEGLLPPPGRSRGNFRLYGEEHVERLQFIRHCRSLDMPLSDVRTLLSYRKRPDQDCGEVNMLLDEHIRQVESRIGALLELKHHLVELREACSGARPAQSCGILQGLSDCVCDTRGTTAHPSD

# Variants of: B1
# Measurement Protocol: sfGFP reporter fluorescence (15 h) (µM FITC); higher = higher leak
# Setup Conditions: library round: Round 1; ligand: none
Measured Metric: sfGFP reporter fluorescence

Worked examples follow.
Mutant Designation | sfGFP reporter fluorescence
M60L D64K G128T D131C | 0.754
N83T I97C | 0.0623

Input D64T R111F . Output sfGFP reporter fluorescence: 0.0911

Input E94F K104V G128H . Output sfGFP reporter fluorescence: 0.0634

Input I125L D131A D135A . Output sfGFP reporter fluorescence: 0.065
